Property: SI (selectivity index for MAO-B as compared to MAO-A); scope: individual compounds
# assayedSystem: MAO-B (Homo sapiens, UniProt P27338)
# Construct: purchased Sigma-Aldrich
# testMethodNotes: MAO-B inhibition assay (recombinant enzyme, benzylamine substrate)
# Type: biochemical
# experimentalConditions: IC50 MAO-A divided by IC50 MAO-B
Please reply with the number alone, leaving off any unit.

Here's what some known entries look like.
chemicalString	measuredResult
COc1ccc(C(=O)/C=C/c2ccccc2)cc1OC	6.54
COc1ccc(C(=O)/C=C/c2cccc(F)c2)c(OC)c1	45.93

Attention now shifts to the item below.
Please look at this compound and report its SI (selectivity index for MAO-B as compared to MAO-A): COc1ccc(C(=O)/C=C/c2cccc(Cl)c2)c(OC)c1
44.08

###

Property: remaining activity at 10 µM; scope: individual compounds
# assayedSystem: AChE (Electrophorus electricus, UniProt O42275)
# Sequence (O42275 24-633): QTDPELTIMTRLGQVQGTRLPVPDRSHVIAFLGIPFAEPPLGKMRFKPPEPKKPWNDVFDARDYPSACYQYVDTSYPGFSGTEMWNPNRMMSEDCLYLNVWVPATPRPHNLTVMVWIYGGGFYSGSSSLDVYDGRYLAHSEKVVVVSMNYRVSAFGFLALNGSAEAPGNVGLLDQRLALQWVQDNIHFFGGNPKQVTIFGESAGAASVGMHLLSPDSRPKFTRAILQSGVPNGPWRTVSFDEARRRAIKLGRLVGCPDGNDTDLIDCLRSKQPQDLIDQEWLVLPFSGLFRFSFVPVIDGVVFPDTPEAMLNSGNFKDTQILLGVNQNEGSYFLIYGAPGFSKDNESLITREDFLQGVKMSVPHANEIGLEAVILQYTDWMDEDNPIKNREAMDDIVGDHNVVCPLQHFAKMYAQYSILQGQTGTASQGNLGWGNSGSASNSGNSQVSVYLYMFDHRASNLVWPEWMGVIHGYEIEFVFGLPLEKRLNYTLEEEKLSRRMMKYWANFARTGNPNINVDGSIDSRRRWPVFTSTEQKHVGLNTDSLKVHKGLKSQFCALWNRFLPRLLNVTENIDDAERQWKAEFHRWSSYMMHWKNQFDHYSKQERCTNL
# testMethodNotes: AChE inhibition (colorimetric, acetylthiocholine iodide)
# Format: biochemical
# experimentalConditions: read-out: Residual activity at 10 µM (%) AChE
Hi! Could you send only the number? It should be in %, unit omitted.

Here's what some known entries look like.
chemicalString	displayUnit	measuredResult
COc1ccc(C(=O)/C=C/c2ccccc2Cl)c(OC)c1	%	71.9
COc1ccc(C(=O)/C=C/c2ccc(Br)cc2)cc1OC	%	81.8
COc1ccc(C(=O)/C=C/c2ccccc2Cl)cc1OC	%	68.5
COc1ccc(C(=O)/C=C/c2ccccc2)cc1OC	%	80.3
COc1ccc(C(=O)/C=C/c2cccc(F)c2)c(OC)c1	%	71.9

Please look at this compound and report its remaining activity at 10 µM: COc1ccc(C(=O)/C=C/c2cccc(Cl)c2)c(OC)c1
81.5

Please look at this compound and report its remaining activity at 10 µM: COc1ccc(C(=O)/C=C/c2cccc(Br)c2)c(OC)c1
73

###

# assayedSystem: MAO-B (Homo sapiens)
# Construct: purchased Sigma-Aldrich
# Sequence (P27338 1-520): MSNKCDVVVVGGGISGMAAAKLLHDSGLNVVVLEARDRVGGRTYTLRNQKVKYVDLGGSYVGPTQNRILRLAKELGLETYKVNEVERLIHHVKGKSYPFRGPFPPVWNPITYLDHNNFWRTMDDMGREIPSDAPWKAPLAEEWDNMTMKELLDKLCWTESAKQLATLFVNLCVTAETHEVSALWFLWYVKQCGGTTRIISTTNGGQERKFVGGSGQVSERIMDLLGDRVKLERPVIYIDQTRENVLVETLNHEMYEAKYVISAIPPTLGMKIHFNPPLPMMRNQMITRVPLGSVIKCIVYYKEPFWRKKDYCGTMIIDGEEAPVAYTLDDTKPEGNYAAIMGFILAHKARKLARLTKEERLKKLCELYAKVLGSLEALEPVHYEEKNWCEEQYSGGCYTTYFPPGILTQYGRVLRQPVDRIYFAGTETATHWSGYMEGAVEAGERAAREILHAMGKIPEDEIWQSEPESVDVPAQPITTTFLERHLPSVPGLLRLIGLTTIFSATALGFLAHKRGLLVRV
# testMethodNotes: MAO-B inhibition assay (recombinant enzyme, benzylamine substrate)
# Assay type: biochemical
# experimentalConditions: recombinant MAO-B, benzylamine 0.3 mM; read-out: IC50 (µM) MAO-B
Entry class follows IC50: bucket 1 (below 0.2 µM), bucket 2 (0.2 µM to below 0.8 µM), bucket 3 (0.8 µM or more)

Known results for compounds:
chemicalString	category
COc1ccc(C(=O)/C=C/c2ccc(Cl)cc2)cc1OC	bucket 3
COc1ccc(C(=O)/C=C/c2cccc(Cl)c2)cc1OC	bucket 3
COc1ccc(C(=O)/C=C/c2ccc(Br)cc2)cc1OC	bucket 1

Category of COc1ccc(C(=O)/C=C/c2cccc(F)c2)cc1OC :
bucket 2

Category of COc1ccc(C(=O)/C=C/c2ccccc2Br)c(OC)c1 :
bucket 1

Category of COc1ccc(C(=O)/C=C/c2ccccc2F)cc1OC :
bucket 1

Category of COc1ccc(C(=O)/C=C/c2ccc(Br)cc2)c(OC)c1 :
bucket 3

Category of COc1ccc(C(=O)/C=C/c2ccccc2Cl)cc1OC :
bucket 3

Category of COc1ccc(C(=O)/C=C/c2ccccc2)cc1OC :
bucket 3

Category of COc1ccc(C(=O)/C=C/c2ccccc2Br)cc1OC :
bucket 2

Category of COc1ccc(C(=O)/C=C/c2cccc(Cl)c2)c(OC)c1 :
bucket 1
